Source of measurements: a melting point compilation (Tetko et al.)

The following compounds are listed with their measured melting point values.

Would you please look over these solved cases?
CCC(C)NS(=O)(=O)c1cccc(C(=O)O)c1 (centres undefined) : 155 to 157 °C
COc1ccccc1C1CC1C(=O)O (centres undefined) : 137 to 139 °C
CC1N=C(S)N(C2CC2)C1=O (centres undefined) : < 17 °C
Cc1c(C)n(Cc2ccccc2)c2ncnc(N)c12 : 175 to 177 °C
COC(=O)N(C)c1ccccc1C(=O)O : 138 to 140 °C

// Nc1ccccc1SCC(O)c1ccccc1 (centres undefined) : melting point value = 61 to 63 °C

// Nc1ccc(S(=O)(=O)CCO)cc1 : melting point value = 106 to 108 °C

----------
The following molecules are listed with their measured melting point values.

Cn1c(=O)[nH]c(=O)c2ccc(C(=O)O)nc21 : 305 to 307 °C
O=C(O)CCCOc1cccc(Br)c1 : 50 to 52 °C
O=C(O)CCCc1cc(Cl)sc1Cl : 42 to 44 °C
NC(CCN1CCOCC1)=NO : 159 to 161 °C
Cc1cc(C(=O)CBr)ccc1O : 119 to 121 °C

// O=C(O)c1c[nH]c(=O)c(Br)c1 : melting point value = 307 to 309 °C

// NCc1ccc(NC(=O)c2ccc(F)cc2)cc1 : melting point value = 135 to 137 °C

----------
observation.type: melting point

// Cc1cc(C)n(Cc2ccc(C(=O)O)cc2)n1 : melting point value = 179 to 181 °C

// CC(C)(C)C1CCc2sc(-c3nnc(S)o3)cc2C1 (stereo unspecified) : melting point value = 176 to 178 °C

// O=C(O)c1cc(/C=C/c2ccc(OC(F)(F)F)cc2)nc2ccc(Br)cc12 : melting point value = 311 to 313 °C

// Cc1ccc(S(=O)(=O)Cl)c([N+](=O)[O-])c1 : melting point value = 97 to 99 °C

// N#Cc1c(N)nc2n1CCS2 : melting point value = 216 to 218 °C

// NCC1(O)CCC1 : melting point value = 64 to 66 °C

// O=C(O)c1ccc(NC2=NS(=O)(=O)c3ccccc32)cc1 : melting point value = 369 to 371 °C

// O=C(O)c1ccc(Oc2cc(Cl)ccc2Cl)cc1 : melting point value = 169 to 171 °C

// CC1CN(Cc2ccccc2N)CC(C)O1 (stereo unspecified) : melting point value = 93 to 95 °C

// COC(=O)c1c(N)cccc1F : melting point value = 53 to 55 °C

// O=C1CC(c2ccccc2)C(=O)O1 (stereo unspecified) : melting point value = 51 to 55 °C

// CN(C)C(=O)c1ccc(S(N)(=O)=O)cc1 : melting point value = 206 to 208 °C

// CCOC(=O)C(NS(C)(=O)=O)C(=O)OCC : melting point value = 72 to 74 °C

// Cc1noc(C(C)C)c1C(=O)O : melting point value = 147 to 151 °C

----------
The following molecules are listed with their measured melting point values.

Would you please look over these solved cases?
OCc1nnc(-c2ccccc2)o1 : 129 to 131 °C
Cc1ccc(-c2cc(C(=O)O)[nH]n2)cc1 : 251 to 253 °C
O=c1[nH]c(N2CCOCC2)nc2scc(-c3ccccc3)c12 : 307 to 309 °C
COC(=O)C(C(=O)OC)c1ccc(C(F)(F)F)cc1[N+](=O)[O-] : 63 to 65 °C
O=C(O)c1ccc(SCc2cn3ccccc3n2)cc1 : 102 to 103 °C

Now turn to the next molecule.
// Cc1cc(C#N)ccc1-n1cncn1 : melting point value = 139 to 141 °C

----------
observation.type: melting point

CNc1ccc(-c2ccccc2)nn1 : 157 to 159 °C

// Cn1nc(C=O)cc1-c1cccs1 : melting point value = 76 to 78 °C

// CC(C)NC(=O)Nc1ccccc1C(=O)O : melting point value = 178 to 180 °C

// c1nc(N2CCOCC2)c2nc[nH]c2n1 : melting point value = 301 to 303 °C

// NC(=O)C1CCCN(Cc2ccccc2N)C1 (centres undefined) : melting point value = 133 to 135 °C

// CC(=O)N1CC=C(c2ccc(O)cc2)CC1 : melting point value = 188 to 190 °C

// NNC(=O)CCc1cccnc1 : melting point value = 92 to 94 °C

----------
observation.type: melting point

Cc1cc(N)n(C2CC3CCC2C3)n1 (centres undefined) : 59 to 61 °C
O=C(NO)C1CCCC1 : 107 to 109 °C
Cc1cc(C)c(S(=O)(=O)N2CCCC2C(=O)O)c(C)c1 (centres undefined) : 84 to 86 °C
Cn1c(=O)n(CC(=O)O)c2ccccc21 : 202 to 204 °C
CCNc1ccncc1 : 103 to 105 °C
CCn1c(C)nnc1S : 129 to 131 °C

// O=C(O)c1cccc(S(=O)(=O)CC(F)(F)F)c1 : melting point value = 192 to 194 °C

// Cc1ccc(-c2csc(CC(N)=S)n2)cc1 : melting point value = 117 to 119 °C

----------
The following molecules are listed with their measured melting point values.

Would you please look over these solved cases?
CCCn1c(=O)n(C)c(=O)c2c(S)nc(C(C)C)nc21 : 204 to 206 °C
O=C1Cc2ccccc2C(=O)N1 : 190 to 192 °C
N#Cc1ccc(F)c(CBr)c1 : 44 to 46 °C
Cn1nnc(C(=O)O)c1C(F)(F)F : 114 to 116 °C
COc1ccc(-c2nc(N)sc2C)cc1 : 120 to 122 °C

// CS(=O)(=O)N1CCc2ccccc2C1CC(=O)O (configuration not stated) : melting point value = 126 to 128 °C

// Cc1ccc2c(c1)C(=NO)C(=O)N2 : melting point value = 239 to 241 °C

----------
observation.type: melting point

Cc1c(C)n(Cc2ccco2)c2ncnc(N)c12 : 180 to 182 °C

// Cn1cc(C(=O)O)c(-c2ccccc2)n1 : melting point value = 204 to 206 °C

// Cc1cccc(C)c1OCC(=O)O : melting point value = 138 to 140 °C

// CNCc1ccc(O)cc1 : melting point value = 103 to 105 °C

// O=C1CC(C(=O)O)c2ccc(F)cc2N1 (centres undefined) : melting point value = 214 to 216 °C

// NS(=O)(=O)c1ncccn1 : melting point value = 173 to 175 °C

// COc1cccc(COc2cccc(Cl)c2C=O)c1 : melting point value = 64 to 66 °C

// CC(Cl)C(=O)N1CCc2ccccc21 (centres undefined) : melting point value = 106 to 108 °C

// COc1ccc2cc(CO)ccc2c1 : melting point value = 122 to 124 °C

----------
The following compounds are listed with their measured melting point values.

Would you please look over these solved cases?
O[C@@H]1CCNC1 : 15 to 17 °C
Cc1cc(C(=O)CCl)c(C)n1-c1ccon1 : 87 to 89 °C
O=C(Cc1ccccc1F)N1CCNCC1 : 77 to 79 °C
O=C(O)c1cc([N+](=O)[O-])c(F)cc1I : 158 to 160 °C
O=C1COc2ccc(F)cc2N1 : 204 to 206 °C

// CC(C)N1C(=O)C(=O)c2ccccc21 : melting point value = 77 to 79 °C

// NC(=O)c1cccc(F)c1I : melting point value = 189 to 191 °C

// N#CCc1nc2ccc(Br)cc2c(=O)[nH]1 : melting point value = 279 to 281 °C

// O=Cc1cc2c(cc1O)OCO2 : melting point value = 114 to 116 °C

// Cc1ccc(C(=O)NC(CC(=O)O)c2ccccc2)cc1 (centres undefined) : melting point value = 190 to 192 °C

// Nc1cnccc1CO : melting point value = 112 to 114 °C

// O=C(O)C(Sc1ccc(F)c(Cl)c1)c1ccccc1 (centres undefined) : melting point value = 74 to 76 °C

// NC1(c2nnn[nH]2)CCC1 : melting point value = 254 to 256 °C

// CCN(CC)S(=O)(=O)c1c[nH]c(C(=O)O)c1 : melting point value = 250 to 252 °C

----------
observation.type: melting point

Would you please look over these solved cases?
O=C(O)Cc1csc(NC(=O)c2cccc(O)c2)n1 : 196 to 198 °C
COc1ccc(Cc2nc3sc4c(c3c(=O)[nH]2)CCC4)cc1OC : 237 to 239 °C
CCOC(=O)C=Cc1ccc2c(c1)OCO2 : 66 to 68 °C

Now turn to the next molecule.
// COc1ccc(C(=O)C=C(SC)SC)cc1 : melting point value = 99 to 101 °C

----------
observation.type: melting point

CCc1cc2oc(=O)cc(CCl)c2cc1Cl : 170 to 172 °C
O=c1nc2ccccc2c(-c2ccccc2)[nH]1 : 254 to 256 °C
O=C(O)Cc1csc(N2CCCC2=O)n1 : 118 to 120 °C
Clc1cncc(N2CCOCC2)n1 : 114 to 116 °C
O=C(NCCS(=O)(=O)Cl)OCc1ccccc1 : 39 to 41 °C
O=C(O)c1cc([N+](=O)[O-])cc(S(=O)(=O)Cl)c1 : 162 to 164 °C
O=C(O)CCCN1CCOC1=O : 73 to 75 °C
CN(CC(=O)Nc1ccc(F)cc1)C(=O)CCl : 159 to 161 °C
NC(=NO)c1ccc(Cn2cnc3ccccc32)cc1 : 237 to 239 °C
COc1cccc(/C=C/c2cc(C(=O)O)c3cc(Br)ccc3n2)c1 : 285 to 287 °C

// O=C(O)c1cc(-c2ccco2)nc2cc(F)ccc12 : melting point value = 272 to 274 °C

// Cc1[nH]ncc1Cl : melting point value = 64 to 66 °C

// N#Cc1ccc2nc(Cl)ccc2c1 : melting point value = 208 to 210 °C
